test: folding stability dG unfold from trypsin proteolysis; higher = more stable
Category key, based on recorded folding stability dG unfold: bottom bin: < 0.6 kcal/mol; middle bin: ≥ 0.6 kcal/mol and < 2 kcal/mol; top bin: ≥ 2 kcal/mol

Sequence Chain	Qualitative Label
SAGGSAGGSAGEPVEVTPLSTETVPDSDTTVTYYKVTYPGGKEAIRTVYSDGTETTTPLPSAGGSAGGSAGG [r11_637_JUSTAS]	middle bin
SAELLEELLKKAREEAEKEGKKVEIHLVLVVEKDENGKVTFTEEEKELIKKLKEAFPDVEIKIEVVELPSAG [r14_636_TrROS_Hall]	top bin
SAGGMKKEKVKITIVVPVEDAEKLREALEKLGFKVVEEKENEDGLLTLTVEVDGKKIEIKIVKKEELSAGGS [r16_170_TrROS_Hall]	middle bin
SLSPSTPISSEEEAKEAAEKLAEEVREELGEDLPIVVDIERKELEDGTIVVKFTFYVPETGEKLLEVEVGSA [r9_794_JUSTAS]	middle bin
SAGAEVEVVELTDEEIEALAKELNPDVTIEVVVVRVPPPPEKVEVRDPETGETVTLTVTPDGEIRAEKSAGG [r19_70_TrROS_Hall]	middle bin
SAGGSVRIESIKWKRPPNGMFKIEIHVEAPPGDPDDPEKQERQAESVAKPIAKELQDEFGFKPIGPSAGGSA [r2_306_TrROS]	bottom bin
SAEKEYKVKVKVKIEIVELSEEELENLPPGALVIEVDGKLYLMRIEVEEVEVEEVPEEPEVDEETGELLSAG [r14_126_TrROS_Hall]	top bin
SAGGSAKITIEKVDDQYRITVTVPVYDENGNKVPLTFDFVYPSDDPDAFLDDVIRRIRELNPDLEKSAGGSA [r15_1050_TrMRF]	top bin
QRVLPFKNPDGDYWVMIMNPNGDPLVEHRIPNDPEQMEKAIHKLMEQLPNFDPEDLRIAVMNPKNGESQEIS [r1_55_TrROS]	bottom bin
SAGGSVPERAKVVTLVLRFEEPESLGIPLLERLLRELGFPDAVLGEVRIEPLPDGSVVAVVPLLVPSAGGSA [r2_346_TrMRF]	top bin
SAGKSIKILITTEKEEEAKKLAEEIKKELPKLGYKVEVYIMPKEEFEKFLKEFVVPEPDGKLVKVDLSSAGG [r19_187_TrMRF]	bottom bin
SAGGSASSMTTTKKLSTGEKSVVELSTSPSTVTLVTTDPETGTVTVTTYTPSGTGPVATTTTVPAPSAGGSA [r15_137_JUSTAS]	bottom bin
SAGGKKIEIKEGDTVKLKNATITLNGKTFKIKDAEAKVVKVDKKKKKVIIEITLKNGKKETFVFDIKSAGGS [r8_215_TrROS_Hall]	top bin
SAGGLSYIELEVEFPGGGSFEEAKARAEKLAEEVRKKLGLKEVKIEIKKNPDGSYRVKITIKVPSKLSAGGS [r8_3_JUSTAS]	top bin
